Each entry below carries its reported abundance fitness.
B1: Connector enhancer of kinase suppressor of ras 2, residues 9 to 71; numbered along this chain, Q8WXI2 (parent)
chain: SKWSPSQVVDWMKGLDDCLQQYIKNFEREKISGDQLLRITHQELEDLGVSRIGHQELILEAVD

# Variants of: B1
# experiment.summary: abundance fitness (aPCA) (normalised: wild type 0, dead -1); higher = more abundant; growth selection in yeast, the domain comes from the species named
# measurement.conditions: Homo sapiens

{"columns": ["mutant.designation", "abundance fitness"],
 "data": [
  ["D46E", -0.013],
  ["G53M", -0.009],
  ["L37N", -0.154],
  ["E43V", -0.257],
  ["K30Q", -0.036],
  ["R51T", 0.063],
  ["Y22R", -0.728],
  ["E45G", -0.12],
  ["K30C", -0.097],
  ["G48V", -1.01],
  ["I58Y", -1.35],
  ["Q55E", -0.954],
  ["D63L", -0.176],
  ["G48S", -0.66],
  ["D46G", -0.075],
  ["L15E", -0.371],
  ["Q21F", -0.539],
  ["L36D", -0.847],
  ["Q55Y", -1.02],
  ["F26N", -0.893],
  ["N25G", -0.139],
  ["D63T", -0.055],
  ["G33R", -0.631],
  ["D34I", -0.213],
  ["G48E", -0.692],
  ["E60I", -0.531],
  ["I58G", -0.945],
  ["Q55C", -0.403],
  ["R28K", -0.063],
  ["G48H", -0.813],
  ["S32L", -0.706],
  ["V62N", -0.815],
  ["G53E", 0.085],
  ["L37Y", -0.28],
  ["S50M", -0.09],
  ["Y22V", -0.806],
  ["Q42R", -0.03],
  ["Q42D", -0.348],
  ["H41L", -0.234],
  ["E43M", -0.165],
  ["D34T", -0.118],
  ["N25D", -0.08],
  ["L59G", -0.674],
  ["H54T", -0.874],
  ["G14R", -0.3],
  ["Q35S", -0.291]
]}
